Biological target: T1, human calcitonin receptor (human, UniProt P30988 25-474)
T1 construct: whole, on cells; Membranes of BHK cells stably transfected with the human calcitonin receptor (Assay VII); also called hCTR; hCT
T1 sequence (looked up): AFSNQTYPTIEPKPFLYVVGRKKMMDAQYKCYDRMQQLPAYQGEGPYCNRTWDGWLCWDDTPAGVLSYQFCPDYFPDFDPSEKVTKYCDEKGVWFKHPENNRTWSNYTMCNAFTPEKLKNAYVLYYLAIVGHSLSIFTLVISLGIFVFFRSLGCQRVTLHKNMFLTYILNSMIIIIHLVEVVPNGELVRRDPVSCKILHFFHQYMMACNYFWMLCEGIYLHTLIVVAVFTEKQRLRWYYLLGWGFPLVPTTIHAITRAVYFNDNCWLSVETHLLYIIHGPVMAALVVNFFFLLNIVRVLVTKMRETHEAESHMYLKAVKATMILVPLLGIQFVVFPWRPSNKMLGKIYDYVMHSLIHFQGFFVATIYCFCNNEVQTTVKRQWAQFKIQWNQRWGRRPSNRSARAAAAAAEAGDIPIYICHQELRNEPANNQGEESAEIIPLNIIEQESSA
Assay: ratio of IC50 at hCTR over IC50 at hAmylin-R (SPA competition assays)
Numbered stars: 1 amine (or outer) side, 2 acyl side, 3 side chain; on linkers, the order of the positions; unused ones are H or OH. Bridge positions count the residues as written; N and C are the ends. Side chains are listed from the residue outwards. Ends that are not written are not given here. * marks the point of attachment. C20 diacid = O=C(O)CCCCCCCCCCCCCCCCCCC(=O)*; γGlu = O=C(O)[C@H](CCC(=O)[*:2])N[*:1]
parameter-measured: Ratio hCT/hAmylin binding

Example binders with recorded Ratio hCT/hAmylin binding:
K([γGlu-γGlu-C20 diacid])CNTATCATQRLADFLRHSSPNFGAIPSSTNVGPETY-NH2 (disulfide 2-7)    49.8
K([γGlu-C20 diacid])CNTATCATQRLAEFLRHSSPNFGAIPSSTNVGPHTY-NH2 (disulfide 2-7)    21.2
{C20 diacid-γGlu}-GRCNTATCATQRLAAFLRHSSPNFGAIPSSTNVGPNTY-NH2 (disulfide 3-8)    26.5
K([γGlu-γGlu-C20 diacid])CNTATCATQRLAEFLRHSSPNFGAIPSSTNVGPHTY-NH2 (disulfide 2-7 (inferred))    27.3

a: K([γGlu-γGlu-C20 diacid])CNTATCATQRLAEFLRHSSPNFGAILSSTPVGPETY-NH2 (disulfide 2-7 (inferred))
b: K([γGlu-γGlu-C20 diacid])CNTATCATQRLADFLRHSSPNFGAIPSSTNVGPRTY-NH2 (disulfide 2-7, also called compound 130)
Problem: Given the entries a and b , determine which has the lower reported Ratio hCT/hAmylin binding. API: response body contains the label of the selected item.
a
(a: 22.6, b: 280)
